- MEASURED TARGET: Mannose-6-phosphate isomerase (Homo sapiens, UniProt P34949)
- Sequence (P34949 whole entry): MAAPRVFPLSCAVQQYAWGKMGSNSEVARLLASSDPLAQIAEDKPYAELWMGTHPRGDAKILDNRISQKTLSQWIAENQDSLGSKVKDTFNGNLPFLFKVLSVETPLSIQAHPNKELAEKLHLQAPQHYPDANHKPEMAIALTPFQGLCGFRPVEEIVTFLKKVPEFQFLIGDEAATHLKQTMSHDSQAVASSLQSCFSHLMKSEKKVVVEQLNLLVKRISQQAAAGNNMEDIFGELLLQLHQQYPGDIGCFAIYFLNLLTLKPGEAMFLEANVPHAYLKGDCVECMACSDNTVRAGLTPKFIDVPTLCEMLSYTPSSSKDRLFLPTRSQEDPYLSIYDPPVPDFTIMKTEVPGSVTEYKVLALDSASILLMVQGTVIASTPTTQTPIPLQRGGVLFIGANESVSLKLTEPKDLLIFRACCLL
- ASSAY: MPI inhibition at elevated mannose 6-phosphate – biochemical, fluorescence intensity, high mannose 6-phosphate, primary screen (AID 1220)
Activity calls are given as the source filed them. Rule as the data show it: actives have a measured IC50 and inactives only a lower limit.
VALUE TYPE: IC50

O=[N+]([O-])c1ccc2c(c1NC1CCCCC1)=NC1(CCCCC1)[N+]=2[O-]    > 50 µM (not active)
CC1=CC(=O)C=C(C)C1=NOS(=O)(=O)c1ccccc1    47.3 µM (active)
Cc1ccc(-n2sc3ccccc3c2=O)cc1    22 µM (active)
Cc1ccccc1NC(=S)Nc1cccc2cnccc12    > 50 µM (not active)

Just for reference, ChEMBL document CHEMBL1201862 is where these values come from.
